biological target: CDK4/cyclin D3 (Homo sapiens, UniProt P11802); construct: purchased Carna Biosciences, Inc. QS S Assist CDK4/Cyclin D3_FP Kit; assay: Human CDK4/cyclin D3 inhibitory activity (QS S Assist CDK4/Cyclin D3_FP Kit, IMAP fluorescence polarization); type: biochemical; details: Human CDK4/cyclin D3 inhibitory activity; read-out: CDK4 Activity symbol
Sequence (P11802 whole entry): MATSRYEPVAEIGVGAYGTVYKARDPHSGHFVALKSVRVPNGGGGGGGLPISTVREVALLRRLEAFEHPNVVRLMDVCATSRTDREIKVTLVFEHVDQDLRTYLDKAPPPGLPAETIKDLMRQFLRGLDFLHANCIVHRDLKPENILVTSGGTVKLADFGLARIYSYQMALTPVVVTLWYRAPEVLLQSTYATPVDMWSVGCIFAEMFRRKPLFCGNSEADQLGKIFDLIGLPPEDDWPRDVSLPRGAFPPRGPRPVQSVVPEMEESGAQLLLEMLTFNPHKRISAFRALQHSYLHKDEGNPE
Sequence (P30281 whole entry partner): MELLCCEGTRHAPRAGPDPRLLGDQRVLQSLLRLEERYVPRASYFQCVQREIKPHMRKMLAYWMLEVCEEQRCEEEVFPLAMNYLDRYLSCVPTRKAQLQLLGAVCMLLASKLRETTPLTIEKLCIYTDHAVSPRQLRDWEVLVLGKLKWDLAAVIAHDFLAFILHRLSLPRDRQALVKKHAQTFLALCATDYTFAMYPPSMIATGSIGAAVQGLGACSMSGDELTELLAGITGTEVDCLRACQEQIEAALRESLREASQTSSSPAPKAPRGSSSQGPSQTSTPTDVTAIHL
Readout label: IC50

Some compounds with recorded IC50:
- COC(C)c1cc2cnc(Nc3ccc(CN4CCNCC4)cn3)nc2c(NCc2ccc(=O)[nH]c2)n1 (centres unmarked): 10 to 100 nM
- COCC(C)(C)Nc1nc([C@@H](C)O)cc2cnc(Nc3ccc(C4CCN(C(C)=O)CC4)cn3)nc12: < 10 nM
- CNCCCOc1ccc(Nc2ncc3cc([C@@H](C)O)nc(NC(C)C)c3n2)nn1: < 10 nM

Provide the reported IC50 of each entry below, same order.
1. CC(C)Nc1nc(C(F)F)cc2cnc(Nc3ccc(NC(=O)CCO)cn3)nc12
2. CC(C)Nc1nc(C(F)F)cc2cnc(Nc3ccc(CN4CCOCC4=O)cn3)nc12
3. CC(C)Nc1nc([C@@H](C)O)cc2cnc(Nc3ccc(N4CCN(CC(C)(C)C)CC4)nn3)nc12
4. CC(C)Nc1nc(C(F)F)cc2cnc(Nc3ccc(CN4CCC(C(=O)O)C4)cn3)nc12 (centres unmarked)
5. FC(F)c1cc2cnc(Nc3ccc(N4CCNCC4)cn3)nc2c(NC2COC2)n1

Key:
≥ 100 nM
< 10 nM
< 10 nM
< 10 nM
≥ 100 nM

* * *

biological target: CDK2/cyclin A2 (Homo sapiens); construct: purchased Carna Biosciences, Inc. QS S Assist CDK2/Cyclin A2_FP Kit; experiment: Human CDK2/cyclin A2 inhibitory activity (QS S Assist CDK2/Cyclin A2_FP Kit, IMAP fluorescence polarization); type: biochemical; details: 50% inhibitory concentration against CDK2/cyclin A2, given as class symbol
Readout label: IC50

Consider the following illustrative entries.
• C[C@@H](O)c1cc2cnc(Nc3ccc(CN4CCCC(O)C4)cn3)nc2c(NCC2CC2)n1 (some centres unmarked) [Compound 1083] = ≥ 100 nM
• CO[C@H](C)c1cc2cnc(Nc3ccc(N4CCNCC4)nn3)nc2c(NC2CCC(C)(C)CC2)n1 [Compound 726] = ≥ 100 nM
• CC(C)Nc1nc([C@@H](C)O)cc2cnc(Nc3ccc(CN4CCC(CO)CC4)cn3)nc12 [Compound 1016] = ≥ 100 nM
• C[C@@H](O)c1cc2cnc(Nc3ccc(CN4CCCC(O)C4)cn3)nc2c(NC(C)(C)C)n1 (some centres unmarked) [Compound 1127] = ≥ 100 nM

Fill in IC50 for each of the 6 compounds listed.
1. CC(=O)c1nc(NC(C)C)c2nc(Nc3ccc(N4CCNCC4=O)cn3)ncc2c1Cl [Compound 1031]
2. CC(C)Nc1nc([C@@H](C)O)cc2cnc(Nc3ccc(CN4CCC(O)C4)cn3)nc12 (some centres unmarked) [Compound 1041]
3. CCCNc1nc(C(F)F)cc2cnc(Nc3ccc(N4CCNCC4=O)cn3)nc12 [Compound 821]
4. C[C@@H](O)c1cc2cnc(Nc3ccc(CN4CCN(CCO)CC4)cn3)nc2c(NC2CC2)n1 [Compound 997]
5. CC(C)Nc1nc([C@@H](C)O)cc2cnc(Nc3ccc(CN4CCN(CC#N)CC4)cn3)nc12 [Compound 1015]
6. CC(O)c1cc2cnc(Nc3ccc(OC4CCNCC4F)cn3)nc2c(NC2CCCOC2)n1 (centres unmarked) [Compound 645]

Key:
1. ≥ 100 nM
2. ≥ 100 nM
3. 10 to 100 nM
4. ≥ 100 nM
5. ≥ 100 nM
6. ≥ 100 nM

Count: 7. Required value per item: IC50.
1. CC(C)Nc1nc([C@@H](C)O)cc2cnc(Nc3ccc(N4CCN(C(C)C#N)CC4=O)cn3)nc12 (some centres unmarked) [Compound 936]
2. C[C@@H](O)c1cc2cnc(Nc3ccc(N4CCNCC4=O)cn3)nc2c(NC2CC2)n1 [Compound 1044]
3. C[C@@H](O)c1cc2cnc(Nc3ccc(N4CCCC(C(=O)O)C4)nn3)nc2c(N[C@H]2CC[C@H](O)CC2)n1 (some centres unmarked) [Compound 1218]
4. CC(C)CNc1nc([C@@H](C)O)cc2cnc(Nc3ccc(CN4CCC[C@H](O)C4)cn3)nc12 [Compound 1189]
5. CCNc1nc([C@@H](C)O)c(C)c2cnc(Nc3ccc(CN4CCN(CCO)CC4)cn3)nc12 [Compound 1168]
6. CNC1CC2(C1)CN(c1ccc(Nc3ncc4cc([C@@H](C)OC)nc(N[C@H]5CCCOC5)c4n3)nc1)C2 [Compound 1009]
7. CC(C)Nc1nc([C@@H](C)O)cc2cnc(Nc3ccc(C(=O)N4CCNC[C@H]4C)cn3)nc12 [Compound 1167]

Key:
≥ 100 nM
≥ 100 nM
≥ 100 nM
≥ 100 nM
≥ 100 nM
≥ 100 nM
10 to 100 nM

Report IC50 for every entry below.
1. CC(C)Nc1nc([C@@H](C)O)cc2cnc(Nc3cnc(CN4CCN(CCO)CC4)cn3)nc12 [Compound 1050]
2. CC(C)Nc1nc([C@@H](C)O)cc2cnc(Nc3ccc(CN4CCN(C(=O)CO)CC4)cn3)nc12 [Compound 987]
3. O=C1CNCCN1c1ccc(Nc2ncc3cc(C(F)F)nc(N[C@H]4CCCOC4)c3n2)nc1 [Compound 849]
4. CN(C)CCOC(=O)N1CCc2nc(Nc3ncc4cc(C5CCOC5)nc(N[C@H]5CCCOC5)c4n3)ccc2C1 (some centres unmarked) [Compound 1136]
5. Cc1nc(Nc2ncc3cc(C4CCOC4)nc(NC(C)C)c3n2)ccc1N1CCNCC1=O (single isomer, unassigned) [Compound 875]
6. CCNc1nc([C@@H](C)O)cc2cnc(Nc3ccc(CN4CCN(CCO)C(C)(C)C4)cn3)nc12 [Compound 1169]

Key:
≥ 100 nM
≥ 100 nM
10 to 100 nM
≥ 100 nM
≥ 100 nM
≥ 100 nM
